Data origin, for the record: PubChem BioAssay AID248

Tested on: L1210 leukemia ip in BDF1 mice, survival T/C
Test: NCI In Vivo Anticancer Drug Screen. Data for tumor model L1210 Leukemia (intraperitoneal) in B6D2F1 (BDF1) mice
Conditions: endpoint: mean survival time; dose: 400.0 mg/kg/injection; schedule: Q04DX003 (ip); vehicle: Klucel (hydroxypropylcellulose) (HPC); higher = longer survival
Toxic doses and inconclusive results are not listed.
Form field: T/C (one value per entry).
property measured: T/C

[[record]]
compound = "CNc1ccccc1C#N"
experimental_target = "L1210 leukemia ip in BDF1 mice, survival T/C"
reported_result = "97 % of control"

[[record]]
compound = "Cc1ccc(C)c(NC(=O)c2ccccc2Cl)c1"
experimental_target = "L1210 leukemia ip in BDF1 mice, survival T/C"
reported_result = "97 % of control"

[[record]]
compound = "CCSc1nc(C=O)c(Cc2ccccc2)c(=O)[nH]1"
experimental_target = "L1210 leukemia ip in BDF1 mice, survival T/C"
reported_result = "98 % of control"

[[record]]
compound = "O=P1(N(CCCl)CCCl)N(Cc2ccccc2)c2ccccc2N1Cc1ccccc1"
experimental_target = "L1210 leukemia ip in BDF1 mice, survival T/C"
reported_result = "101 % of control"

[[record]]
compound = "O=C(NCCc1ccccc1)Nc1cc([N+](=O)[O-])ccc1F"
experimental_target = "L1210 leukemia ip in BDF1 mice, survival T/C"
reported_result = "102 % of control"

[[record]]
compound = "O=C(O)CSCc1ccccc1"
experimental_target = "L1210 leukemia ip in BDF1 mice, survival T/C"
reported_result = "102 % of control"

[[record]]
compound = "COc1ccc(NCc2ccccc2C#N)c(OC)c1"
experimental_target = "L1210 leukemia ip in BDF1 mice, survival T/C"
reported_result = "103 % of control"

[[record]]
compound = "CC1=NNC(=O)C1"
experimental_target = "L1210 leukemia ip in BDF1 mice, survival T/C"
reported_result = "96 % of control"

[[record]]
compound = "Clc1ccc(C(Cl)c2ccc(Cl)cc2)cc1"
experimental_target = "L1210 leukemia ip in BDF1 mice, survival T/C"
reported_result = "107 % of control"

[[record]]
compound = "Cc1cc(=O)[nH]c2ccc(-c3ccc4[nH]c(=O)cc(C)c4c3)cc12"
experimental_target = "L1210 leukemia ip in BDF1 mice, survival T/C"
reported_result = "100 % of control"

[[record]]
compound = "CC1=CC2=NC(=O)C(c3ccccc3)C(=O)N2C=C1 (stereo not given)"
experimental_target = "L1210 leukemia ip in BDF1 mice, survival T/C"
reported_result = "97 % of control"

[[record]]
compound = "CCOc1ccc(NC(=O)OC(C)C)cc1"
experimental_target = "L1210 leukemia ip in BDF1 mice, survival T/C"
reported_result = "103 % of control"

[[record]]
compound = "COC(=O)CCC#CC#CCCC(=O)OC"
experimental_target = "L1210 leukemia ip in BDF1 mice, survival T/C"
reported_result = "90 % of control"

[[record]]
compound = "Cc1ccccc1N=Cc1ccc2c(c1)OCO2"
experimental_target = "L1210 leukemia ip in BDF1 mice, survival T/C"
reported_result = "110 % of control"

[[record]]
compound = "O=[N+]([O-])c1cccc(S(=O)(=O)NNc2cc(C(F)(F)F)ccc2Cl)c1"
experimental_target = "L1210 leukemia ip in BDF1 mice, survival T/C"
reported_result = "100 % of control"

[[record]]
compound = "O=C(N/N=C/C=C\\c1ccccc1)C(=O)N/N=C/C=C/c1ccccc1"
experimental_target = "L1210 leukemia ip in BDF1 mice, survival T/C"
reported_result = "94 % of control"

[[record]]
compound = "CC(C)(C)N=NC1(S(=O)(=O)c2ccccc2)CCCCC1"
experimental_target = "L1210 leukemia ip in BDF1 mice, survival T/C"
reported_result = "91 % of control"

[[record]]
compound = "Nc1nc(N)nc(-c2ccc(-n3nnc4ccccc4c3=O)cc2)n1"
experimental_target = "L1210 leukemia ip in BDF1 mice, survival T/C"
reported_result = "91 % of control"

[[record]]
compound = "CC1C=CC(C)C(C(=O)c2ccccc2)C1C(=O)c1ccccc1 (stereo not given)"
experimental_target = "L1210 leukemia ip in BDF1 mice, survival T/C"
reported_result = "88 % of control"

[[record]]
compound = "COC(=O)c1cc(C)c(Br)c(N)c1"
experimental_target = "L1210 leukemia ip in BDF1 mice, survival T/C"
reported_result = "95 % of control"

[[record]]
compound = "Cc1ccc(Cl)cc1NC(=O)c1ccccc1"
experimental_target = "L1210 leukemia ip in BDF1 mice, survival T/C"
reported_result = "95 % of control"

[[record]]
compound = "CC(C)(C)CC(C)(C)c1ccc(OCCOc2ccc(NS(=O)(=O)c3ccc([N+](=O)[O-])cc3)cc2)cc1"
experimental_target = "L1210 leukemia ip in BDF1 mice, survival T/C"
reported_result = "91 % of control"

[[record]]
compound = "O=C(NC(CSC(=O)OCc1ccccc1)C(=O)Oc1ccc([N+](=O)[O-])cc1)OCc1ccccc1 (stereo not given)"
experimental_target = "L1210 leukemia ip in BDF1 mice, survival T/C"
reported_result = "103 % of control"

[[record]]
compound = "Nc1ncc([N+](=O)[O-])cn1"
experimental_target = "L1210 leukemia ip in BDF1 mice, survival T/C"
reported_result = "94 % of control"

[[record]]
compound = "COC(=O)c1nc(Cl)nc(SC)c1Cl"
experimental_target = "L1210 leukemia ip in BDF1 mice, survival T/C"
reported_result = "96 % of control"

